molecular target: Recombinant Human NF-kappaB-Inducing Kinase (NIK/MAP3K14) (Homo sapiens); assay: Inhibition of auto-phosphorylation of recombinant human NIK/MAP3K14 activity (AlphaScreen); conditions: 5 μM ATP, 1 nM NIK, average if tested more than once
Sequence (Q99558 whole entry): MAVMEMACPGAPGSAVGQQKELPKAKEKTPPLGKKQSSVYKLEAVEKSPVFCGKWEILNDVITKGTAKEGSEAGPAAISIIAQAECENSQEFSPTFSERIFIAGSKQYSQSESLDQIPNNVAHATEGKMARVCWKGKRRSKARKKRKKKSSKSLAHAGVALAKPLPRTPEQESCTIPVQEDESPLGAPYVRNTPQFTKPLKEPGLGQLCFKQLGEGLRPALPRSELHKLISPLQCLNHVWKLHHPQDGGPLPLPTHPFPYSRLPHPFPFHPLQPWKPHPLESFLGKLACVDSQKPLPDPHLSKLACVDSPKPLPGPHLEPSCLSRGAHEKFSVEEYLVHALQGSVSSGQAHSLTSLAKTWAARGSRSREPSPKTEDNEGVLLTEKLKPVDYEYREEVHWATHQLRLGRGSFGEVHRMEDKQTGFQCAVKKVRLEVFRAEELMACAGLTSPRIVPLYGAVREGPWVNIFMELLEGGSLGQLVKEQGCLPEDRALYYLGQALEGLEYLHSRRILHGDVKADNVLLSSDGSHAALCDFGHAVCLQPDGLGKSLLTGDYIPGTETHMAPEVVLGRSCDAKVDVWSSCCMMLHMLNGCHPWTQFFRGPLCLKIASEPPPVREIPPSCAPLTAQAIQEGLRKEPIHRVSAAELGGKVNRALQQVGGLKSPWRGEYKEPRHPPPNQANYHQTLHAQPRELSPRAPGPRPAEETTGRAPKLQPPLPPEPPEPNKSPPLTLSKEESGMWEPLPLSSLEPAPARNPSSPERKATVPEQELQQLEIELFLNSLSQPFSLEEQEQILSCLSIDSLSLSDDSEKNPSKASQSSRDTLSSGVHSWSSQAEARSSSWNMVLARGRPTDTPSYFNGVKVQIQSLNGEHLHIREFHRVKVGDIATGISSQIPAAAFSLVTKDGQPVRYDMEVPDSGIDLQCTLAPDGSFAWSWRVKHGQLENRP
pIC50: −log10 of the molar value.

{"columns": ["Molecule", "pIC50"],
 "data": [
  ["CC(=O)N1CC[C@H](Nc2nccc(-c3csc(-c4cccc([C@]5(O)CCN(C)C5=O)c4)n3)n2)C1", "6.30 to 7.00"],
  ["C[C@H](Nc1nccc(-c2csc(-c3cccc([C@]4(O)CCN(C)C4=O)c3)n2)n1)c1ccccn1", "6.30 to 7.00"],
  ["COCCn1cc(Nc2nccc(-c3nc(-c4cccc([C@]5(O)CCN(C)C5=O)c4)cs3)n2)cn1", "> 7.00"],
  ["CN1CCC(O)(c2cc(C#N)cc(-c3csc(-c4ccnc(Nc5ccn(C)n5)n4)n3)c2)C1=O (single isomer, unassigned) [Example 57]", "> 7.00"],
  ["CN1CC[C@@](O)(c2cccc(-c3nc(-c4ccnc(NCc5ncco5)n4)cs3)c2)C1=O", "> 7.00"],
  ["CC(Nc1nccc(-c2csc(-c3cccc([C@]4(O)CCN(C)C4=O)c3)n2)n1)C(=O)N1CCN(C)CC1 (stereo partly drawn)", "6.30 to 7.00"],
  ["C[C@@H](Nc1nccc(-c2csc(-c3cccc([C@]4(O)CCN(C)C4=O)c3)n2)n1)c1cncn1C (single isomer, unassigned)", "< 6.30"],
  ["C[C@@H](Nc1nccc(-n2ccc(-c3cccc([C@]4(O)CCN(C)C4=O)c3)n2)n1)c1ccnn1C (single isomer, unassigned)", "> 7.00"],
  ["CN1CC[C@@](O)(c2cccc(-c3nc(-c4ccnc(Nc5cnn(C6CCC6)c5)n4)cs3)c2)C1=O", "> 7.00"],
  ["CC(Nc1nccc(-c2csc(-c3cccc([C@]4(O)CCN(C)C4=O)c3)n2)n1)c1ncccn1 (stereo partly drawn)", "> 7.00"],
  ["CN1CC[C@@](O)(c2cccc(-c3nc(-c4ccnc(NCCCO)n4)cs3)c2)C1=O", "> 7.00"],
  ["CN1CCC(O)(c2ccnc(-c3nc(-c4ccnc(Nc5ccn(C)n5)n4)cs3)c2)C1=O (single isomer, unassigned) [Example 34]", "> 7.00"],
  ["C[C@H](Nc1nccc(-c2csc(-c3cccc([C@]4(O)CCN(C)C4=O)c3)n2)n1)c1cn[nH]c1 (single isomer, unassigned) [Example 294]", "> 7.00"],
  ["CN1CC[C@@](O)(c2cccc(-c3nc(-c4ccnc(NCCCN5CCOCC5)n4)cs3)c2)C1=O", "< 6.30"],
  ["CN1CCC(O)(c2ccc(F)c(-c3csc(-c4ccnc(Nc5ccn(C)n5)n4)n3)c2)C1=O (single isomer, unassigned) [Example 28]", "> 7.00"],
  ["Cc1cc(CNc2nccc(-c3csc(-c4cccc([C@]5(O)CCN(C)C5=O)c4)n3)n2)n[nH]1", "> 7.00"],
  ["CNC(=O)c1cc(Nc2nccc(-c3csc(-c4cccc([C@]5(O)CCN(C)C5=O)c4)n3)n2)c(OC2CC2)cc1F", "> 7.00"],
  ["Cc1nc(Nc2nccc(-c3csc(-c4cccc([C@]5(O)CCN(C)C5=O)c4)n3)n2)sc1C", "> 7.00"]
]}
